Reference for the values: patent US10738031B2

# study-system: human Orexin 1 receptor (Homo sapiens, UniProt O43613)
# Construct: stably expressing the full-length human Orexin 1 receptor; expressed in transfected cells; host or cells: CHO-K1 (CHO-K1/hOX1), co-expressing aequorin
# Sequence (O43613 whole entry): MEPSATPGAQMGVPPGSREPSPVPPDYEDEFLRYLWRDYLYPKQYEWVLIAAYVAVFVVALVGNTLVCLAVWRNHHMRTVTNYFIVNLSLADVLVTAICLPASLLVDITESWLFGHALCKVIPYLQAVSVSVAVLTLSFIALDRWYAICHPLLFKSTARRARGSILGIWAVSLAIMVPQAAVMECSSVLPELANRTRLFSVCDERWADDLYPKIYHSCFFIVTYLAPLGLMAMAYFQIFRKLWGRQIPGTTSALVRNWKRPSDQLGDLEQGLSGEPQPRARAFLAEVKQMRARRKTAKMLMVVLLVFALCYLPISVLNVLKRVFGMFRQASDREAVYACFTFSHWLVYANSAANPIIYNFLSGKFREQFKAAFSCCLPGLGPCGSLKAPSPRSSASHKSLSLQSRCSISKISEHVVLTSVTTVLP
# procedure-details: Assay A: OX1R IP1 (in vitro OX1R potency)
# Type: cell-based
# study-conditions: Table 3; Orexin A concentration 0.5 nM
parameter-measured: log10 Kb (log10 of the value in nM)

# smiles-str, parameter-measured, observed-measurement
data = [
    ("CCN(C(=O)c1ncccc1-n1nccn1)[C@@H](C)COc1ccc(Cl)cn1", "log10 Kb", 0.48),
    ("CCN(C(=O)c1ncccc1-c1ccn(C)n1)[C@@H](C)COc1ccc(C(F)(F)F)cn1", "log10 Kb", 0.18),
    ("CCN(C(=O)c1cccnc1-n1nccn1)[C@@H](C)COc1ccc(Cl)cn1", "log10 Kb", 0.92),
    ("CCN(C(=O)c1ncc(F)cc1-c1ccn(C)n1)[C@@H](C)COc1ccc(C(F)(F)F)cn1", "log10 Kb", 0.52),
    ("CCN(C(=O)c1cc(OC)ncc1-c1ccn(C)n1)[C@@H](C)COc1ccc(C(F)(F)F)cn1", "log10 Kb", 0.38),
    ("CCN(C(=O)c1cc(Cl)cnc1-n1nccn1)[C@@H](C)COc1ccc(C(F)(F)F)cn1", "log10 Kb", -0.43),
    ("CCN(C(=O)c1cnc(C)nc1-c1ccccc1)[C@@H](C)COc1cnc(C(F)(F)F)cn1", "log10 Kb", 0.26),
    ("CCN(C(=O)c1c(F)ccnc1-c1ccn(C)n1)[C@@H](C)COc1ccc(C(F)(F)F)cn1", "log10 Kb", 0.54),
    ("CCN(C(=O)c1cccnc1-n1nccn1)[C@@H](C)COc1ncc(C(F)(F)F)cc1F", "log10 Kb", 0.62),
    ("CCN(C(=O)c1c(F)cncc1-n1cccn1)[C@@H](C)COc1ccc(C(F)(F)F)cn1", "log10 Kb", 0.81),
    ("CCN(C(=O)c1nc(C)ccc1-c1ncccn1)[C@@H](C)COc1cnc(C(F)(F)F)cn1", "log10 Kb", 0.51),
    ("CCN(C(=O)c1cc(F)cnc1-c1ncccn1)[C@@H](C)COc1cnc(C(F)(F)F)cn1", "log10 Kb", 1.30),
    ("CCN(C(=O)c1cnccc1-n1cccn1)[C@@H](C)COc1ccc(C(F)(F)F)cn1", "log10 Kb", 0.34),
    ("CCN(C(=O)c1ncccc1-n1nccn1)[C@@H](C)COc1ncc(C(F)(F)F)cc1F", "log10 Kb", 0.26),
    ("CCN(C(=O)c1ccc(C(F)(F)F)nc1-c1ccn(C)n1)[C@@H](C)COc1ccc(C(F)(F)F)cn1", "log10 Kb", 0.30),
    ("CCN(C(=O)c1cc(OC)cnc1-n1nccn1)[C@@H](C)COc1ccc(Cl)cn1", "log10 Kb", 0.28),
]

----------
# study-system: human orexin 2 receptor (Homo sapiens)
# Construct: stably expressing the full-length human orexin 2 receptor; expressed in transfected cells; host or cells: CHO-K1 (CHO-K1/hOX2), co-expressing aequorin
# Sequence (O43614 whole entry): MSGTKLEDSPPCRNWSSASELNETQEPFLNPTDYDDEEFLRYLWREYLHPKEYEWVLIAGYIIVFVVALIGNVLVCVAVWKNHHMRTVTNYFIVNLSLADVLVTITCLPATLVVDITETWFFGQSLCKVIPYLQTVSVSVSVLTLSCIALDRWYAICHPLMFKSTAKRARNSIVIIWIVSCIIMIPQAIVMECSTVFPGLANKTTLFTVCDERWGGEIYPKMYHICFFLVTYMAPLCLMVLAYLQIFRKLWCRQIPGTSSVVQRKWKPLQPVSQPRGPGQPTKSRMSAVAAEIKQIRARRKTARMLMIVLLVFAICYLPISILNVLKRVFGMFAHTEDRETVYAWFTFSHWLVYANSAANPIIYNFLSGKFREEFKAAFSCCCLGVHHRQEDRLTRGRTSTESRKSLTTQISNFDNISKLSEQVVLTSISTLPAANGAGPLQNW
# procedure-details: Assay B: OX2R IP1 (in vitro OX2R potency)
# Format: cell-based
# study-conditions: Table 3; 0.5 nM Orexin A concentration
compounds and their reported Kb

# compound, Kb [nM]
records = [
    ("CCN(C(=O)c1ccncc1-n1cccn1)[C@@H](C)COc1ccc(C(F)(F)F)cn1 [Example 40]", 1560),
    ("CCN(C(=O)c1cccnc1-n1nccn1)[C@@H](C)COc1ncc(C(F)(F)F)cc1F [Example 44]", 1210),
    ("CCN(C(=O)c1nc(C)ccc1-n1nccn1)[C@@H](C)COc1ncc(C(F)(F)F)cc1F [Example 12]", 206),
    ("CCN(C(=O)c1cc(F)cnc1-n1nccn1)[C@@H](C)COc1ccc(C(F)(F)F)cn1 [Example 6]", 844),
    ("CCN(C(=O)c1ncc(C)cc1-c1ccn(C)n1)[C@@H](C)COc1ccc(C(F)(F)F)cn1 [Example 20]", 415),
    ("CCN(C(=O)c1cnccc1-n1cccn1)[C@@H](C)COc1ccc(C(F)(F)F)cn1 [Example 69]", 305),
    ("CCN(C(=O)c1cnc(C)nc1-c1ccccc1)[C@@H](C)COc1ncc(C(F)(F)F)cn1 [Example 11]", 1290),
    ("CCN(C(=O)c1cc(OC)ncc1-c1ccn(C)n1)[C@@H](C)COc1ccc(C(F)(F)F)cn1 [Example 38]", 323),
]
